- experimental-target: Neurogenic locus notch homolog protein 3 (Homo sapiens)
- protocol-notes: NOTCH3 binders on small-molecule microarray, primary screen, biochemical, 635/667 nm fluorescence (AID 1096)
- cond: NOTCH3 binding, 635 nm fluorescence, higher = more signal
parameter-measured: composite z-score
Number only, no unit.

The following compounds have reported results that may help.
COCCCNC(=O)[C@@]1(Sc2ccc(C)cc2)CC(=O)N(Cc2ccccc2)[C@@H]1c1ccc(CO)cc1I
-1
CC(C)[C@@H](OCc1ccccc1)[C@H](C)C=NOC[C@@H](C)[C@H](OCc1ccccc1)C(C)C
0.421
CCOc1ccc(N2C(=O)/C(=C/C=C/c3ccccc3OC)S(=O)(=O)C2c2cccc([N+](=O)[O-])c2)cc1 (stereo not drawn)
0.638
CO[C@@H]1COC(=O)[C@@H]2CCCN2C(=O)[C@@H](C)COC(=O)[C@H](COCc2ccccc2)NC(=O)CC=C[C@H]1C
0.554
COc1ccc(O[C@H]2C=C[C@@H](c3ccccc3)O[C@@H]2COC(=O)CCC(C)=NOC[C@@H](C)[C@H](OCc2ccccc2)C(C)C)cc1
-1.03
CC(C)CON=C1C[C@@H](O)[C@@H](O)[C@@H]2[C@@H]3C(=O)N([C@@H](C)c4ccccc4)C(=O)[C@@H]3CC[C@H]12
1.08

Query string: Any idea what composite z-score was measured for COC(=O)CC1OC1[C@H](C)[C@@H](OC)C(C)C (stereo partly drawn) ?
Result string: -0.556

Query string: What do you have for COc1ccc(COC(=O)NN=C2C[C@@H](O)[C@@H](O)[C@@H]3[C@@H]4C(=O)N(c5ccc(F)cc5F)C(=O)[C@@H]4CC[C@@H]23)cc1 ?
Result string: 0.14

###

- experimental-target: Concanavalin-A (Canavalia ensiformis)
- protocol-notes: ConA small-molecule binders, primary screen, artefact control for SMM control protein annotation, biochemical, small-molecule microarray, Alexa647 label, 635 nm (AID 1127);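 further: z combines 667 nm emission intensity with signal-to-noise across three replicate slides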
- cond: ConA-A647 binding fluorescence, higher = more signal
Class field: derived from composite z-score; ranges bottom = under 0.5, middle = from 0.5 up to 0.9, top = 0.9 and over

CC[C@@H](c1ccccc1)n1c(=O)n2n(c1=O)[C@H]1[C@H](O)[C@@H]3O[C@@H]3C(=NOCC(C)C)[C@H]1CC2
bottom

Query string: Any idea which band CO[C@@H]1COC(=O)CCC[C@@H](C)[C@H](OC)COC(=O)[C@H](Cc2ccccc2)NC(=O)CC=C[C@H]1C is in?
Result string: bottom

Query string: Try this compound too: C[C@@H]1CCC2C(=O)N(Cc3ccccc3)C[C@@H](O)CN2[C@H]1c1ccc(Br)cc1 (some centres undefined)
Result string: middle

Query string: Note, next up: CO[C@H]1COC(=O)[C@@H]2CCCN2C(=O)[C@@H](C)COC(=O)CC=C[C@@H]1C
Result string: middle

Query string: Now try COC(=O)[C@@]1(Cc2ccc(F)cc2)[C@@H]2C(=CC(=O)[C@H]2CC(=O)C(=O)N(C)C)CN1C(=O)c1ccccc1 .
Result string: top

Query string: Same again, this time with COCCOC(=O)N1C(=O)[C@@]2(c3cc(C#CC4(O)CCCCCC4)ccc31)[C@H](C(=O)N1CCN(c3ncccn3)CC1)[C@H]1C(=O)O[C@H](c3ccccc3)[C@H](c3ccccc3)N1[C@@H]2c1ccc(OCCO)cc1
Result string: top
